Known % Positive of a selection of binders
# Test target: T1, cynomolgus monkey GPRC5D (cynomolgus monkey)
# T1 construct: whole, on cells; HEK293T-cynoGPRC5D cells; also called cynoGPRC5D
# Assay remarks: FACS, HEK293T-cynoGPRC5D cells
Give the value in % but do not write % after it.

Worked set:
- Binder: "ATG596 (antibody, V domains shown, Human IgG1; also called benchmark antibody ATG596; positive human IgG1 control antibody) VH: QVQLVQSGAEVKKPGASVKVSCKASGYSFTGYTMNWVRQAPGQGLEWMGLINPYNSDTNYAQKLQGRVTMTTDTSTSTAYMELRSLRSDDTAVYYCARVALRVALDYWGQGTLVTVSS VL: DIQMTQSPSSLSASVGDRVTITCKASQNVATHVGWYQQKPGKAPKRLIYSASYRYSGVPSRFSGSGSGTEFTLTISNLQPEDFATYYCQQYNRYPYTFGQGTKLEIK"
  Unit: "%"
  Quantitative result: 98.6
- Binder: "110B4H5 (antibody, V domains shown, Mouse monoclonal antibody from hybridoma subclone) VH: EVQLQQSGPELVKPGASVKMSCKASGYTFTFYIMHWVKQKPGQGPEWIGYINPYNDGTKYNAKFKGKATLSSDRSSSTAYMELSSLTSEDSAVYYCARGGVRRYFDVWGAGTPVTVSS VL: DIQMTQSPSSLSASLGERVSLTCRSSQDIGSNLNWLQQEPDGTIKRLIYATFSLDSGVPKRFSGSRSGSHYSLTISSLESEDFVVYYCLQYGSFPYTFGGGTKLEIK"
  Unit: "%"
  Quantitative result: 96.7

Now turn to the next binder.
Would you kindly share the measured % Positive for 89F11E3 (antibody, V domains shown, Mouse monoclonal antibody from hybridoma subclone) VH: QVQLQQSGAELARPGASVKMSCKASGYTFTSSTIHWVKQRPGQGLAWIGYIVPSTGYTNYNQKFKDKATLTADKSSSTAYMQLTSLTSEDSAVYYCARSDGYPFGYSMAYWGQGTSVTVSS VL: DIQMNQSPSSLSASLGDTITITCHASQNINVWLSWYHQKPGNIPKLLIYKASNLHTGVPSRFSGSGSGTGFTLTISRLQPEDIATYYCQQGQSYPFTFGSGTKLEIK ?
98.8

Values were extracted from patent US20250368734A1.
